EXPERIMENT_NOTES: logP by LC-MS on reversed-phase columns (C 18), method [b], acidic range pH 2.7
Type: physicochemical
COND: pH 2.7, log p
Method: The logP values were determined in accordance with EEC Directive 79/831 Annex V.A8 by HPLC (High Performance Liquid Chromatography) on reversed-phase columns (C 18), using the methods below: [b] The LC-MS determination in the acidic range is carried out at pH 2.7 using the mobile phases 0.1% aqueous formic acid and acetonitrile (contains 0.1% formic acid), linear gradient from 10% acetonitrile to 95% acetonitrile.
MEASURED_ATTRIBUTE: chromatographic logP
Write the number on its own, no unit after it.

Example entries begin here.
CCSc1cccc(Nc2ncc(C(F)(F)F)c(NC3CC(C)C3)n2)c1 (stereo not shown) [Example 234] :: 4.09
CCOCCOc1ccc(Nc2ncc(C(F)(F)F)c(NC3CC3)n2)cc1Cl [Example 184] :: 3.72
CCOCCSc1cccc(Nc2ncc(Cl)c(NC3CC3)n2)c1 [Example 189] :: 2.7
CCS(=O)(=O)c1cccc(Nc2ncc(C(F)(F)F)c(NC3CC3)n2)c1 [Example 116] :: 2.74
CCS(=O)(=O)C(C)c1cccc(Nc2ncc(Cl)c(NC(C)C)n2)c1 (stereo not shown) [Example 150] :: 1.65

Req: Need chromatographic logP of CCSC(C)c1cccc(Nc2ncc(C(F)(F)F)c(NC3CCCC3)n2)c1 (stereo not shown) [Example 37] , thanks.
Resp: 5.2

Req: Requested read-out: chromatographic logP. Entry: CCCCSc1cccc(Nc2ncc(C(F)(F)F)c(NC3CC3)n2)c1 [Example 107]
Resp: 4.94

Req: # get_value(readout='chromatographic logP', item= CCCN(C)c1nc(Nc2cccc(COC)c2)ncc1Cl [Example 141] )
Resp: 2.55

Req: Form field: reported chromatographic logP of CCCCS(=O)(=O)c1cccc(Nc2ncc(C(F)(F)F)c(NC3CC3)n2)c1 [Example 121]
Resp: 3.4

Req: Which chromatographic logP value is on record for CCOCCOc1ccc(Nc2ncc(Cl)c(NC3CC3)n2)cc1C(F)(F)F [Example 185] ?
Resp: 2.91

Req: Requested field: chromatographic logP. Item: COCc1cccc(Nc2ncc(Cl)c(N(C)C3CC3)n2)c1 [Example 58]
Resp: 2.7

Req: Consider the compound COCc1cccc(Nc2ncc(Cl)c(NC3CCCC3)n2)c1 [Example 7] and give its measured chromatographic logP.
Resp: 2.23

Req: If you can, please state the reported chromatographic logP value of COC(C)c1cccc(Nc2ncc(Br)c(NC3CCC3)n2)c1 (stereo not shown) [Example 20] .
Resp: 2.46

Req: Need chromatographic logP, item CCOCCSc1cccc(Nc2ncc(C(F)(F)F)c(NC3CC3)n2)c1 [Example 190]
Resp: 3.87

Req: // chromatographic logP lookup, key: CC[S+]([O-])c1cccc(Nc2ncc(Cl)c(NC3CC3)n2)c1 (stereo not shown) [Example 114]
Resp: 1.48

Req: What value of chromatographic logP has been reported for the following compound? CCS(=O)(=O)C(C)c1cccc(Nc2ncc(C(F)(F)F)c(NC3CCC3)n2)c1 (stereo not shown) [Example 40]
Resp: 2.89

Req: Name the reported chromatographic logP value associated with the compound CCCCS(=O)(=O)c1cccc(Nc2ncc(Cl)c(NC3CC3)n2)c1 [Example 123]
Resp: 2.65

Req: For the compound shown here, CCCCSc1cccc(Nc2ncc(C(F)(F)F)c(NC3CCC3)n2)c1 [Example 128] , give the reported chromatographic logP.
Resp: 5.55

Req: So what does the record say about chromatographic logP for CCSCc1cccc(Nc2ncc(Cl)c(NC(C)C)n2)c1 [Example 33] ?
Resp: 2.61

Req: Please give the measured chromatographic logP for this compound: COCc1cccc(Nc2ncc(Cl)c(NC3CC3C)n2)c1 (stereo not shown) [Example 65]
Resp: 2.03

Req: Requested field: chromatographic logP. Item: CCCS(=O)(=O)c1ccc(Nc2ncc(Cl)c(NC3CC3)n2)cc1 [Example 97]
Resp: 2.42

Req: Suppose we examine the compound COCC(O)c1cccc(Nc2ncc(Cl)c(NC3CC3)n2)c1 (stereo not shown) [Example 194] ; what chromatographic logP value has been reported?
Resp: 1.26
